Experiment: Binding affinity to RBC membrane receptor in human RBCs assessed as dissociation constant by gamma counter
Assay Metric: pKd
pKd is a log-scale quantity: -log10 of the concentration expressed in molar.

Substance: H-DNNKECLIDPLDVQKNLLNEY-OH
pKd: 6.10

Substance: H-RLKENKDYDVVSSIIQHLDN-OH
pKd: 6.14

Next substance, please.
In: Given H-YFFEYELRKKTQSFRNKNSI-OH , state its recorded pKd.
Out: 6.05
